Overview of recorded growth for various molecules
system: U251 CNS; experiment: NCI-60 one-dose screen, 48 h (100 = growth as untreated, 0 = no growth, -100 = all killed); conditions: 10 µM
This is part of a sample that, as a whole, favours compounds with a hit. Of some 83,000 tested, about 20% had one in any assay.
READOUT TYPE: growth (%)

{"MOLECULE": "CC(=O)Oc1ccccc1C(=O)NC([Se])=NC1CCCCC1", "READOUT UNITS": "%", "MEASURED": 24.2}
{"MOLECULE": "CC12OOC(C)(OO1)C2CCC(=O)NCCCNc1ccnc2cc(Cl)ccc12 (stereo not given)", "READOUT UNITS": "%", "MEASURED": 101}
{"MOLECULE": "O=C(/C=C/c1ccc(Br)cc1)c1nc2ccccc2n1Cc1ccc(Br)cc1", "READOUT UNITS": "%", "MEASURED": -86.3}
{"MOLECULE": "O=C(/C=C/c1ccc(F)cc1)c1nc2ccccc2n1Cc1ccc(F)cc1", "READOUT UNITS": "%", "MEASURED": -56.3}
{"MOLECULE": "CC[C@@]12CC(C(=O)OC)=C3Nc4cc5c(cc4[C@@]34CCN(C[C@H]3O[C@H]31)[C@@H]24)[C@@H]1[C@H](O5)[C@@H](O)[C@@]2(CC)CC(C(=O)OC)=C3Nc4cc(OC)ccc4[C@@]34CCN1[C@@H]24", "READOUT UNITS": "%", "MEASURED": 17.2}
{"MOLECULE": "CCOC(=O)C1=C(Nc2ccccc2)C(=O)OC12C(=O)Nc1ccccc12 (stereo not given)", "READOUT UNITS": "%", "MEASURED": 109}
{"MOLECULE": "COC(=O)c1ccc(-n2cc(CCCN(CCNc3ccnc4cc(Cl)ccc34)C(=O)CCC(=O)O[C@@H]3O[C@@H]4OC5(C)CC[C@H]6[C@H](C)CC[C@@H]([C@H]3C)[C@@]46OO5)nn2)cc1", "READOUT UNITS": "%", "MEASURED": 53.3}
{"MOLECULE": "O=C(/C=C/c1ccc(Cl)cc1)c1nc2ccccc2n1Cc1ccc(F)cc1", "READOUT UNITS": "%", "MEASURED": -62.8}
{"MOLECULE": "CC[C@]12C=CCN3CC[C@@]4(c5ccc(OC)cc5N(C)[C@H]4[C@@](O)(C(=O)OC)[C@@H]1OC(=O)CCC[P+](C1CCCCC1)(C1CCCCC1)C1CCCCC1)[C@@H]32", "READOUT UNITS": "%", "MEASURED": -82.5}
{"MOLECULE": "COC(=O)CCn1c(-c2ccc(-n3cc(-c4ccc(O[C@H]5O[C@@H]6OC7(C)CC[C@H]8[C@H](C)CC[C@@H]([C@H]5C)[C@@]68OO7)cc4)nn3)cc2)nc2ccccc21", "READOUT UNITS": "%", "MEASURED": 32.5}
{"MOLECULE": "COc1cc2cc(C(=O)N3C[C@@H](CCl)c4c3cc(OC(=O)N3CCN(C)[C@@H]5CSSC[C@@H]53)c3ccccc43)[nH]c2c(OC)c1OC", "READOUT UNITS": "%", "MEASURED": 7.22}
{"MOLECULE": "COc1ccc2cc([C@H](C)C(=O)[Se]CCC#N)ccc2c1", "READOUT UNITS": "%", "MEASURED": -95.3}
{"MOLECULE": "CC1=C2C(=C[C@@](C)(COP(=O)(Oc3ccccc3)Oc3ccccc3)[C@@H]2O)C(=O)[C@@](C)(O)C12CC2", "READOUT UNITS": "%", "MEASURED": -43.4}
{"MOLECULE": "O=C(/C=C/c1ccccc1)c1nc2ccccc2n1Cc1ccc(Br)cc1", "READOUT UNITS": "%", "MEASURED": -92.9}
{"MOLECULE": "O=C(/C=C/c1ccco1)c1nc2ccccc2n1Cc1ccc(F)cc1", "READOUT UNITS": "%", "MEASURED": 40.9}
{"MOLECULE": "C[C@H]1[C@@H](Oc2ccc(-c3cn(-c4ccnc5cc(Cl)ccc45)nn3)cc2)O[C@@H]2OC3(C)CC[C@H]4[C@H](C)CC[C@@H]1[C@@]24OO3", "READOUT UNITS": "%", "MEASURED": 39.1}
{"MOLECULE": "CCOP(=O)(CC(F)(F)C(F)(F)F)OCC", "READOUT UNITS": "%", "MEASURED": 73.7}
{"MOLECULE": "CC1=C(COCCOC(=O)c2ccc(S(=O)(=O)F)cc2)C2=C(C)C3(CC3)[C@@](C)(O)C(=O)C2=C1", "READOUT UNITS": "%", "MEASURED": 4.59}
{"MOLECULE": "CC(C)C[C@H](NC(=O)CNC(=O)C[C@H]1O[C@@H]2OC3(C)CC[C@H]4[C@H](C)CC[C@@H]([C@H]1C)[C@@]24OO3)B(O)O", "READOUT UNITS": "%", "MEASURED": 13.7}
{"MOLECULE": "COc1ccc(/C=C/C(=O)c2nc3ccccc3n2Cc2ccc(Br)cc2)cc1", "READOUT UNITS": "%", "MEASURED": 50.2}
{"MOLECULE": "COP(=O)(CC(F)(F)C(F)(F)F)OC", "READOUT UNITS": "%", "MEASURED": 81.7}
{"MOLECULE": "CC12OOC(C)(OO1)C2CCC(=O)NCCNc1ccnc2cc(Cl)ccc12 (stereo not given)", "READOUT UNITS": "%", "MEASURED": 110}
{"MOLECULE": "O=C(/C=C/c1ccc(Cl)cc1Cl)c1nc2ccccc2n1Cc1ccc(Br)cc1", "READOUT UNITS": "%", "MEASURED": 45}
{"MOLECULE": "CC1=C(CCC=NNC(N)=O)C2=C(C)C3(CC3)[C@@](C)(O)C(=O)C2=C1", "READOUT UNITS": "%", "MEASURED": -77.4}
{"MOLECULE": "CN(C)CCc1cn(C2CCC2)c2cccc(O)c12", "READOUT UNITS": "%", "MEASURED": 65.7}
{"MOLECULE": "O=C(NC([Se])=NC1CCCCC1)c1ccccc1", "READOUT UNITS": "%", "MEASURED": 49.2}
{"MOLECULE": "COCCOCCOCCOc1ccc(-n2cc(-c3ccc(O[C@H]4O[C@@H]5OC6(C)CC[C@H]7[C@H](C)CC[C@@H]([C@H]4C)[C@@]57OO6)cc3)nn2)cc1", "READOUT UNITS": "%", "MEASURED": 73}
{"MOLECULE": "C=CCN=C([Se])NC(=O)c1ccc2c(c1)OCO2", "READOUT UNITS": "%", "MEASURED": 36.2}
{"MOLECULE": "O=C(/C=C/c1ccco1)c1nc2ccccc2n1Cc1ccc(Br)cc1", "READOUT UNITS": "%", "MEASURED": 18.2}
{"MOLECULE": "CC1=C(C=O)C2=C(C)C3(CC3)[C@@](C)(O)C(=O)C2=C1", "READOUT UNITS": "%", "MEASURED": -43.9}
{"MOLECULE": "O=C(/C=C/c1cccc(Br)c1)c1nc2ccccc2n1Cc1ccc(Br)cc1", "READOUT UNITS": "%", "MEASURED": -83.3}
{"MOLECULE": "C[C@H]1[C@H](OC(=O)CCC(=O)N(CCCc2cn(-c3ccc([N+](=O)[O-])cc3)nn2)CCNc2ccnc3cc(Cl)ccc23)O[C@@H]2OC3(C)CC[C@H]4[C@H](C)CC[C@@H]1[C@@]24OO3", "READOUT UNITS": "%", "MEASURED": 55.9}
{"MOLECULE": "COc1ccc(OC)c(/C=C/C(=O)c2nc3ccccc3n2Cc2ccc(F)cc2)c1", "READOUT UNITS": "%", "MEASURED": -74}
{"MOLECULE": "N#C[Se]CC(=O)Nc1cccc(C(F)(F)F)c1", "READOUT UNITS": "%", "MEASURED": -48.4}
{"MOLECULE": "O=C(/C=C/c1cccc(Br)c1)c1nc2ccccc2n1Cc1ccc(F)cc1", "READOUT UNITS": "%", "MEASURED": -9.29}
